In this section we review reported protein stability index values for a set of variants.
B1: STX5 (parent)
chain: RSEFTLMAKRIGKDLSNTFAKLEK

- Variants of: B1
- MEASUREMENT_NOTES: protein stability index of a GFP-peptide fusion (GPS, HEK-293T) (PSI 1-6); higher = more stable;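 note: lentivirally expressed fusions sorted by FACS into six bins by GFP to DsRed ratio, PSI derived from sequencing read proportions per bin multiplied by bin number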
- STUDY_CONDITIONS: c terminus: a fixed tail appended
REPORTED_ENDPOINT: protein stability index

> print(dat)
    variant.spec  quantitative.result
 1          A20P                  3.3
 2           L6W                 2.53
 3          E23M                 1.34
 4           A8Q                 2.96
 5          T18E                 2.94
 6          T18K                 3.25
 7           F4A                 2.48
 8          L15M                 2.72
 9          D14P                 2.49
10           A8K                 2.99
11          K21E                 2.04
12          K24G                 4.41
13          K13M                 1.07
14           F4W                 3.86
15          G12F                 2.15
16           S2T                  1.9
17          F19I                 2.24
18          T18D                 3.07
19          K13N                 2.06
20           M7G                 2.73
21          A20S                 1.32
22          I11S                 3.87
23          R10E                 2.94
24           L6G                 1.63
25          K21L                 2.47
26          L22H                  2.7
27           L6T                 2.48
28           F4C                 2.65
29          S16K                 3.85
30          L15H                  2.6
31           M7T                 2.54
32           K9M                 1.92
33          G12Q                 1.69
34          F19W                 2.48
35          G12E                 2.42
36           R1L                 3.25
37          E23A                 1.98
38          A20W                 2.44
39          L15D                 3.46
40          N17P                  2.5
41          K21A                 1.96
42          L22C                 1.79
43          K21G                 2.21
44          K24S                 1.63
45           K9E                 2.56
46           E3C                 2.91
